Reported IC50, Cyclin-dependent kinase/G2/mitotic-specific cyclin- 1 (Homo sapiens).

[
  {
    "molecule": "COc1nncc(Nc2cc([C@H]3CC[C@@H](OC(=O)NC4(C)CC4)C3)[nH]n2)n1 [US20250074895, Compound 54]",
    "IC50": "< 100 nM"
  },
  {
    "molecule": "CC1(NC(=O)O[C@@H]2CC[C@H](c3cc(Nc4cc(C#N)ncn4)n[nH]3)C2)CC1 [US20250074895, Compound 16]",
    "IC50": "< 100 nM"
  },
  {
    "molecule": "CC1(C)CCN1C(=O)O[C@@H]1CC[C@H](c2cc(Nc3cnc(CO)cn3)n[nH]2)C1 [US20250074895, Compound 49]",
    "IC50": "< 100 nM"
  },
  {
    "molecule": "CC1(NC(=O)O[C@@H]2CC[C@H](c3cc(Nc4cnc(C(F)(F)F)cn4)n[nH]3)C2)CC1 [US20250074895, Compound 30]",
    "IC50": "300 nM"
  }
]
